All values here come from the supplement of paper PMC10065799.

EXPERIMENTAL TARGET: EPHB1 (UniProt P54762)
Sequence (P54762 whole entry, looked up): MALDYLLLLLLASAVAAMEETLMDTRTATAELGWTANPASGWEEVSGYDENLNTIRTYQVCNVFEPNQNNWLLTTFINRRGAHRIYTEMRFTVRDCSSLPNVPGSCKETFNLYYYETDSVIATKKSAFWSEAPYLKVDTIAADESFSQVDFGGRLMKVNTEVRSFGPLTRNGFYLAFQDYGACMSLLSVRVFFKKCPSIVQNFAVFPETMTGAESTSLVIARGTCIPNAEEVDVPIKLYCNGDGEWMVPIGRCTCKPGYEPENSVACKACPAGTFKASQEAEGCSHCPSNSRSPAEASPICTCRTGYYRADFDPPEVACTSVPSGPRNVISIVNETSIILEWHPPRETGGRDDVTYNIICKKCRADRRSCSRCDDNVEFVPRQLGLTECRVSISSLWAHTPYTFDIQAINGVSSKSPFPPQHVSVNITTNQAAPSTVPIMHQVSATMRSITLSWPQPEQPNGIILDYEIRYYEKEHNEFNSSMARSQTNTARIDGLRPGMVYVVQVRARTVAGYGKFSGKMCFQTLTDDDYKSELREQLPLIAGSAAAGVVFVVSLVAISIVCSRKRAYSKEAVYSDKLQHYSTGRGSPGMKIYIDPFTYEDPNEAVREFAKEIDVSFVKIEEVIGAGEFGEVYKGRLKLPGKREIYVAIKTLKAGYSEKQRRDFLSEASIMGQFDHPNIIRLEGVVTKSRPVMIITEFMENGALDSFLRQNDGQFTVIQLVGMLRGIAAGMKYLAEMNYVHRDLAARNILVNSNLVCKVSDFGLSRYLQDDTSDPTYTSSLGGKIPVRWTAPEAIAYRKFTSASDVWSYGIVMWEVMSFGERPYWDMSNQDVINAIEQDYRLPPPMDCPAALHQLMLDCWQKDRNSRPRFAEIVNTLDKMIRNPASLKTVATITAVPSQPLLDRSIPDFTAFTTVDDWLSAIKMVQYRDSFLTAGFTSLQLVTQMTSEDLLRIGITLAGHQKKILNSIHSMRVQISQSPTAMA
ASSAY REMARKS: phosphorylation enrichment, bacterial display (enrichment ratio); higher = better substrate or ligand; peptides without Tyr show the background;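 also: 11-residue human phosphosite peptides and single-mutation variants displayed on the E. coli surface, counted by deep sequencing, each peptide's frequency after selection divided by its frequency in the unselected input library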;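 also: frequency after pTyr selection over input frequency; kinase dosed for 20-30% of maximal phosphorylation in three min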
METRIC: phosphorylation enrichment
The answer should be a number; do not append a unit.

{"columns": ["SEQ TEXT", "phosphorylation enrichment"],
 "data": [
  ["DFKIIYIVPMR [SNRNP200_Y540_A542V]", 0.525],
  ["SEKIVYGHLDD [ACO2_Y71]", 0.499],
  ["GPGLVYRVANK [FLNB_Y1833_G1834R]", 0.471],
  ["SEDSEYYRAFE [CASQ2_Y178_K180R]", 0.67],
  ["PYRSIYFSSPK [MPG_Y75]", 0.519]
]}

// map KDDEKYLDVIR [MTM1_Y260] to recorded phosphorylation enrichment (system: EPHB1 (UniProt P54762))
0.461

Param item: INVTIYGKTFR [EFHC1_Y177_I174V]
0.631

Also EYGFRYELVQY [UGGT2_Y1289] , if possible.
0.986
